Test: Toxicity on mock-infected MT4 cells (MTT)
Assay type: cell-based
Conditions: human
Parameter: CC50 at 5 days (µM)
Enter your answer as a number in µM; do not include the unit.

| Compound | CC50 at 5 days (µM) |
| --- | --- |
| COc1ccc(C=C2C(=O)Nc3ccc(S(=O)(=O)N(CC(C)C)CC(O)C(Cc4ccccc4)NC(=O)OC4COC5OCCC45)cc32)cc1 (stereo not drawn) | 63.1 |
| Cc1ccc(C=C2C(=O)Nc3ccc(S(=O)(=O)N(CC(C)C)CC(O)C(Cc4ccccc4)NC(=O)OC4COC5OCCC45)cc32)s1 (stereo not drawn) | 100 |
| CC(C)C=C1C(=O)Nc2ccc(S(=O)(=O)N(CC(C)C)CC(O)C(Cc3ccccc3)NC(=O)OC3COC4OCCC34)cc21 (stereo not drawn) | 50.1 |
| CC(C)CN(CC(O)C(Cc1ccccc1)NC(=O)OC1COC2OCCC12)S(=O)(=O)c1ccc2c(c1)C(=Cc1cccn1C)C(=O)N2 (stereo not drawn) | 100 |
| Cc1ccc(C=C2C(=O)Nc3ccc(S(=O)(=O)N(CC(C)C)CC(O)C(Cc4ccccc4)NC(=O)OC4COC5OCCC45)cc32)o1 (stereo not drawn) | 20 |

// next item, CC50 at 5 days requested
Q: Supply reported CC50 at 5 days belonging to this compound: CC(C)CN(C[C@@H](O)[C@H](Cc1ccccc1)NC(=O)OC1COC2OCCC12)S(=O)(=O)c1ccc2c(c1)CC(=O)N2 (stereo in doubt)
Ans: 100

----------
Tested on: HIV strain D
Assay: Antiviral spectrum, clinically isolated mutant strain D
Assay type: cell-based
Conditions: FR=EC50(mutant strain)/EC50(HIV-1 strain LAI)
# cutoff 2 applies to D (FR towards mutant D); >= gives 1, < gives -1

Here are 3 compounds together with their reported answers.
| Compound | Class |
| --- | --- |
| CC(C)C=C1C(=O)Nc2ccc(S(=O)(=O)N(CC(C)C)CC(O)C(Cc3ccccc3)NC(=O)OC3COC4OCCC34)cc21 (stereo not drawn) | -1 |
| COc1ccc(C=C2C(=O)Nc3ccc(S(=O)(=O)N(CC(C)C)CC(O)C(Cc4ccccc4)NC(=O)OC4COC5OCCC45)cc32)cc1 (stereo not drawn) | -1 |
| Cc1ccc(C=C2C(=O)Nc3ccc(S(=O)(=O)N(CC(C)C)CC(O)C(Cc4ccccc4)NC(=O)OC4COC5OCCC45)cc32)s1 (stereo not drawn) | 1 |

Here's the next entry for you.
Q: Please indicate if the recorded D (FR towards mutant D) for CC(C)CN(CC(O)C(Cc1ccccc1)NC(=O)OC1COC2OCCC12)S(=O)(=O)c1ccc2c(c1)C(=Cc1cccn1C)C(=O)N2 (stereo not drawn) meets or exceeds 2.
Ans: -1

----------
System: HIV-1 strain LAI
Test: Cellular anti-HIV assay, MT4 cells, MTT read-out, wild type strain
Type: cell-based
Details: Human immunodeficiency virus 1, MT4; Table 3; wild type HIV-LAI strain; read-out: WT (pEC50) (converted)
Parameter: EC50 (nM)
Value expressed in nM; do not type the unit.

| Compound | Parameter | Val |
| --- | --- | --- |
| Cc1ccc(C=C2C(=O)Nc3ccc(S(=O)(=O)N(CC(C)C)CC(O)C(Cc4ccccc4)NC(=O)OC4COC5OCCC45)cc32)s1 (centres unmarked) | EC50 | 12.6 |
| CC(C)CN(C[C@@H](O)[C@H](Cc1ccccc1)NC(=O)OC1COC2OCCC12)S(=O)(=O)c1ccc2c(c1)CC(=O)N2 (stereo in doubt) | EC50 | 158 |
| CC(C)C=C1C(=O)Nc2ccc(S(=O)(=O)N(CC(C)C)CC(O)C(Cc3ccccc3)NC(=O)OC3COC4OCCC34)cc21 (centres unmarked) | EC50 | 20 |
| COc1ccc(C=C2C(=O)Nc3ccc(S(=O)(=O)N(CC(C)C)CC(O)C(Cc4ccccc4)NC(=O)OC4COC5OCCC45)cc32)cc1 (centres unmarked) | EC50 | 20 |
| CC(C)CN(CC(O)C(Cc1ccccc1)NC(=O)OC1COC2OCCC12)S(=O)(=O)c1ccc2c(c1)C(=Cc1ccc[nH]1)C(=O)N2 (centres unmarked) | EC50 | 3.16 |
| CC(C)CN(CC(O)C(Cc1ccccc1)NC(=O)OC1COC2OCCC12)S(=O)(=O)c1ccc2c(c1)/C(=C\c1ccco1)C(=O)N2 (centres unmarked) | EC50 | 20 |
| CC(C)CN(CC(O)C(Cc1ccccc1)NC(=O)OC1COC2OCCC12)S(=O)(=O)c1ccc2c(c1)C(=Cc1cccn1C)C(=O)N2 (centres unmarked) | EC50 | 15.8 |

Q: Fill in EC50 for record CCC(C=C1C(=O)Nc2ccc(S(=O)(=O)N(CC(C)C)CC(O)C(Cc3ccccc3)NC(=O)OC3COC4OCCC34)cc21)CC (centres unmarked)
Ans: 15.8
